- assayed_target: human recombinant HDAC6 (Homo sapiens)
- Construct: purchased Calbiochem 382180
- Sequence (Q9UBN7 1-1215): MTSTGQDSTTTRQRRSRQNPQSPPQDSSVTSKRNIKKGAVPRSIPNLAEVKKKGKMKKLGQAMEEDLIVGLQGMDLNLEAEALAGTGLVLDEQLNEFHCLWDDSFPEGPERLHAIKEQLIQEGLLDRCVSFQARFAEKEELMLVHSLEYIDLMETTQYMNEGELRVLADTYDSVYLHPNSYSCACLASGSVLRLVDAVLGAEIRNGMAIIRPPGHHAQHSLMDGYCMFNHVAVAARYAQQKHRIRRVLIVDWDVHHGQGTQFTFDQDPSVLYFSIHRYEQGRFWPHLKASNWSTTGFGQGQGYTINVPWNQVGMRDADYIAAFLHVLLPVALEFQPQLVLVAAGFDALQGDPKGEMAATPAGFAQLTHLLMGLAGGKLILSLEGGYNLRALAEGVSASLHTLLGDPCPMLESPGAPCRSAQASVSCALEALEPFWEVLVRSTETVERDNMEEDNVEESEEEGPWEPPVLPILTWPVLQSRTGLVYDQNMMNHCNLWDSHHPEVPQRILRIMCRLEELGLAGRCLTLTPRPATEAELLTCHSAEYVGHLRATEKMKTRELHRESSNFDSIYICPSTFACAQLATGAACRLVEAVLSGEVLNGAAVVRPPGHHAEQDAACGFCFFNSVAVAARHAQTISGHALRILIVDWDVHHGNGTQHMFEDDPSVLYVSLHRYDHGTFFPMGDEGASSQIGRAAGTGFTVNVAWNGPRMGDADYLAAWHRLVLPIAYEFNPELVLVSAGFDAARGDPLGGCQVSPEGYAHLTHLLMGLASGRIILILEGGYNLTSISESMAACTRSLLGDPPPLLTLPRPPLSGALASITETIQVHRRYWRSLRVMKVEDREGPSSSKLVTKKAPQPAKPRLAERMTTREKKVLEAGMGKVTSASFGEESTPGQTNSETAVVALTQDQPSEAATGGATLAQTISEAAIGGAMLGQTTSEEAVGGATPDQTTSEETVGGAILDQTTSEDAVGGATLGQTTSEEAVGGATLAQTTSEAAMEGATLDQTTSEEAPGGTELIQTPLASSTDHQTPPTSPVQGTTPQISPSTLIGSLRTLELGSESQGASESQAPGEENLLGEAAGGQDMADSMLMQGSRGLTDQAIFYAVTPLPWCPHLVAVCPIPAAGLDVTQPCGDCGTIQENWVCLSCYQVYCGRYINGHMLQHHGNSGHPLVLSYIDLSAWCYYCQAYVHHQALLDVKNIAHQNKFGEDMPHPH
- protocol_summary: HDAC6 enzyme activity inhibition assay (HDAC Fluorimetric Drug Discovery Kit)
- Format: biochemical
- measurement_setup: human recombinant HDAC6, same protocol as HDAC1; read-out: HDAC6
For each record, check the reported IC50: if it is below 100 nM write 1, else write -1.

>  <mol_smiles>
CN(C)[C@H]1CCN(C(=O)N(Cc2ccc(-c3nnc(C(F)(F)F)o3)cc2F)c2cccc(Cl)c2F)C1

>  <label>
-1

$$$$
>  <mol_smiles>
CCN(CCN(C)C)C(=O)N(Cc1ccc(-c2nnc(C(F)F)o2)cc1)c1ccccc1

>  <label>
1

$$$$

## Task Just wondering, is IC50 of CN1CCN(c2ccc(N(Cc3ccc(-c4nnc(C(F)F)o4)cn3)C(=O)N3CCS(=O)(=O)CC3)cc2)CC1 below 100 nM?
## Result -1

## Task Just wondering, is IC50 of O=C(N1CCS(=O)(=O)CC1)N(Cc1ccccc1)Cc1ccc(-c2nnc(C(F)(F)F)o2)cc1 below 100 nM?
## Result -1

## Task Just wondering, is IC50 of CN1CCN(c2cccc(N(Cc3ccc(-c4nnc(C(F)F)o4)cn3)C(=O)N3CCS(=O)(=O)CC3)c2)CC1 below 100 nM?
## Result -1

## Task Just wondering, is IC50 of CC(C)(C)N1CCN(C(=O)N(Cc2ccc(-c3nnc(C(F)(F)F)o3)cc2)c2ccccc2)CC1 below 100 nM?
## Result -1

## Task Just wondering, is IC50 of O=C(N1CCOCC1)N(Cc1ccc(-c2nnc(C(F)(F)F)o2)cc1F)c1ccc(F)c(Cl)c1 below 100 nM?
## Result -1

## Task Just wondering, is IC50 of Cc1ccccc1N(Cc1ccc(-c2nnc(C(F)(F)F)o2)cc1)C(=O)N1CCS(=O)(=O)CC1 below 100 nM?
## Result -1

## Task Just wondering, is IC50 of COc1ccc(N(Cc2ccc(-c3nnc(C(F)F)o3)cc2F)C(=O)N2CCN(C3COC3)CC2)cc1 below 100 nM?
## Result -1

## Task Just wondering, is IC50 of O=C(N1CCS(=O)(=O)CC1)N(Cc1ccc(-c2nnc(C(F)(F)F)o2)cc1)c1cccc(Br)c1 below 100 nM?
## Result -1

## Task Just wondering, is IC50 of O=C(N1CCN(C2COC2)CC1)N(Cc1ccc(-c2nnc(C(F)F)o2)cc1F)c1ccc(F)cc1 below 100 nM?
## Result 1

## Task Just wondering, is IC50 of CN1CCN(C(=O)N(Cc2ccc(-c3nnc(C(F)F)o3)cn2)c2cccc(F)c2)CC1 below 100 nM?
## Result 1

## Task Just wondering, is IC50 of O=C(N1CC[C@@H](O)C1)N(Cc1ccc(-c2nnc(C(F)(F)F)o2)cc1F)c1ccc(F)c(Cl)c1 below 100 nM?
## Result -1

## Task Just wondering, is IC50 of CN1CCN(C(=O)N(Cc2ccc(-c3nnc(C(F)F)o3)cn2)c2ccccc2)CC1 below 100 nM?
## Result 1
